Tested on: OVCAR-3
Assay: NCI tumour cell line growth inhibition, 48 h
The source made the active and inactive calls. Rule as the data show it: active = GI50 up to about 1.1 µM and inactive = higher.
Outcome codes: active, inactive

- COMPOUND: "COc1ccccc1NC(=S)N/N=C(/c1ccccc1)c1ccccn1"
  ASSIGNED_CLASS: "active"
- COMPOUND: "COc1cc(C=O)c(-c2cc3c(cc2C2(C)OCCS2)OCO3)c(OC)c1OC (stereo not given)"
  ASSIGNED_CLASS: "inactive"
- COMPOUND: "CC1=NN(C(=O)c2ccc(Cl)cc2)C(=O)/C1=C/c1c(O)cc(O)c2ccccc12"
  ASSIGNED_CLASS: "inactive"
- COMPOUND: "C=C(C)[C@@H]1CC[C@]2(C)CC[C@]3(C)[C@H](CC[C@@H]4[C@@]5(C)CC[C@H](OC(=O)c6ccccc6)C(C)(C)[C@@H]5CC[C@]43C)[C@@H]12"
  ASSIGNED_CLASS: "inactive"
- COMPOUND: "Clc1cccc(-c2nnc(-c3nn(-c4ccccc4)c4nc5ccccc5nc34)o2)c1"
  ASSIGNED_CLASS: "inactive"
- COMPOUND: "C1OC1CO[C@@H]1CO[C@H]2[C@@H]1OC[C@H]2OCC1CO1 (stereo not given in full)"
  ASSIGNED_CLASS: "inactive"
- COMPOUND: "CN1CCc2cc(N)cc3c2C1Cc1ccc(O)c(O)c1-3 (stereo not given)"
  ASSIGNED_CLASS: "inactive"
- COMPOUND: "O=c1cc(-c2cccnc2)[nH]c2cc3c(cc12)OCO3"
  ASSIGNED_CLASS: "inactive"
- COMPOUND: "CC(=O)OC1=CC2(OC(C)=O)CC(C)(C)C1C1C(=O)C=CC(=O)C12 (stereo not given)"
  ASSIGNED_CLASS: "inactive"
- COMPOUND: "COc1cc(S(=O)(=O)Nc2ccc(-c3csc(N4C(=O)C(C)SC4c4ccccc4)n3)cc2)ccc1Cl (stereo not given)"
  ASSIGNED_CLASS: "inactive"
- COMPOUND: "C=CC(=C)CCC(Br)C(C)(C)Br (stereo not given)"
  ASSIGNED_CLASS: "inactive"
- COMPOUND: "CCOC(=O)C1=C(c2ccccc2)NC(c2ccccc2)=C(C(=O)OCC)c2c1c(=O)cc[nH]c2=O"
  ASSIGNED_CLASS: "inactive"
- COMPOUND: "N#CC(C#N)=C(N)/C(C#N)=C/c1cc(O)c(O)c(Br)c1"
  ASSIGNED_CLASS: "inactive"
- COMPOUND: "O=C(NCCC1CN(C(=O)OCc2ccccc2)c2ccccc21)OCc1ccccc1 (stereo not given)"
  ASSIGNED_CLASS: "inactive"
- COMPOUND: "Cc1cc(C)nc(NS(=O)(=O)c2ccc(NC(=O)c3ccc4nc5ccccc5c(Nc5ccc(S(=O)(=O)Nc6nc(C)cc(C)n6)cc5)c4c3)cc2)n1"
  ASSIGNED_CLASS: "inactive"
- COMPOUND: "O=C([C@H](O)[C@@H](O)c1ccc(Br)cc1)C12CC3CC(CC(C3)C1)C2"
  ASSIGNED_CLASS: "inactive"
- COMPOUND: "CCCCCN(CCCCC)C(=O)[C@@H](CCC(=O)OCc1ccccc1)NC(=O)c1cc2ccccc2[nH]1"
  ASSIGNED_CLASS: "inactive"
- COMPOUND: "c1ccc2c(c1)nnn2C1CCCCO1 (stereo not given)"
  ASSIGNED_CLASS: "inactive"
- COMPOUND: "C/C(=N\\Nc1nc2cc(F)ccc2s1)c1ccccn1"
  ASSIGNED_CLASS: "active"
- COMPOUND: "[N-]=[N+]=CC(=O)COC(=O)c1ccccc1"
  ASSIGNED_CLASS: "inactive"
